System: Nucleic Acid
Assay comment: Induction of Aspergillus niger DNA cleavage after 2 hrs by agarose gel electrophoresis
Format: nucleic-acid assay
Calls of active or inactive are those of the source. No cut-off for these calls is given here.
Valid outcomes are listed here; reply with one: active, inactive

Example results:
Compound	Classification
COc1cc2c(cc1OC)C(Cc1cc(=O)oc3cc(C)ccc13)NCC2 (configuration not stated)	inactive
O=c1cc(CC2NCCc3ccccc32)c2ccc3ccccc3c2o1 (configuration not stated)	active
O=c1oc2c(ccc3ccccc32)c2c1CN1CCc3ccccc3C1C2 (configuration not stated)	active
COc1cc2c(cc1OC)C(Cc1cc(=O)oc3ccc(C)cc13)NCC2 (configuration not stated)	inactive
COc1cc2c(cc1OC)C1Cc3c(c(=O)oc4cc(C)ccc34)CN1CC2 (configuration not stated)	inactive

Look up the recorded call for Cc1ccc2oc(=O)cc(CC3NCCc4ccccc43)c2c1 (configuration not stated) in this test.
inactive

Assay outcome for COc1cc2c(cc1OC)C(Cc1cc(=O)oc3c1ccc1ccccc13)NCC2 (configuration not stated) : what was it?
active

Field: outcome | Entry: Cc1ccc2c3c(c(=O)oc2c1)CN1CCc2ccccc2C1C3 (configuration not stated)
inactive

For Cc1ccc2c(CC3NCCc4ccccc43)cc(=O)oc2c1 (configuration not stated) , which call appears in the assay record?
inactive

In this assay, the call recorded for Cc1ccc2oc(=O)c3c(c2c1)CC1c2ccccc2CCN1C3 (configuration not stated) was what?
inactive

What was the test verdict on COc1cc2c(cc1OC)C1Cc3c(c(=O)oc4c3ccc3ccccc34)CN1CC2 (configuration not stated) ?
active

Give the logged outcome of this assay for the following compound: COc1cc2c(cc1OC)C1Cc3c(c(=O)oc4ccc(C)cc34)CN1CC2 (configuration not stated)
inactive

###

System: Nucleic Acid
Assay comment: Induction of Staphylococcus aureus 6538 DNA cleavage after 2 hrs by agarose gel electrophoresis
Assay type: nucleic-acid assay
The source made the active and inactive calls. No cut-off for these calls is given here.
Answer with one of the outcomes active, inactive

Study these solved cases before continuing.
Compound	System tested	Classification
COc1cc2c(cc1OC)C1Cc3c(c(=O)oc4cc(C)ccc34)CN1CC2 (configuration not stated)	Nucleic Acid	inactive
O=c1cc(CC2NCCc3ccccc32)c2ccc3ccccc3c2o1 (configuration not stated)	Nucleic Acid	active
COc1cc2c(cc1OC)C(Cc1cc(=O)oc3c1ccc1ccccc13)NCC2 (configuration not stated)	Nucleic Acid	active

Fill in: this test's call for O=c1oc2c(ccc3ccccc32)c2c1CN1CCc3ccccc3C1C2 (configuration not stated) is ___
active

For COc1cc2c(cc1OC)C1Cc3c(c(=O)oc4c3ccc3ccccc34)CN1CC2 (configuration not stated) , which call appears in the assay record?
active

Fill in: this test's call for COc1cc2c(cc1OC)C(Cc1cc(=O)oc3ccc(C)cc13)NCC2 (configuration not stated) is ___
inactive

What was the test verdict on COc1cc2c(cc1OC)C1Cc3c(c(=O)oc4ccc(C)cc34)CN1CC2 (configuration not stated) ?
inactive

Recorded test outcome, item COc1cc2c(cc1OC)C(Cc1cc(=O)oc3cc(C)ccc13)NCC2 (configuration not stated)
inactive

Status in this test for Cc1ccc2oc(=O)c3c(c2c1)CC1c2ccccc2CCN1C3 (configuration not stated) ?
inactive

Query: recorded result category for Cc1ccc2c3c(c(=O)oc2c1)CN1CCc2ccccc2C1C3 (configuration not stated) in this test
inactive

For Cc1ccc2oc(=O)cc(CC3NCCc4ccccc43)c2c1 (configuration not stated) , what call appears in the results of this test?
inactive

Recorded test call requested for Cc1ccc2c(CC3NCCc4ccccc43)cc(=O)oc2c1 (configuration not stated)
inactive
